- Procedure summary: Inhibition of GABA-A receptor (unknown origin)
- Parameters: species or system Homo sapiens
pIC50: −log10 of the molar value.
Measurement name: pIC50

substance_smiles=c1ccc([C@@H]2C[C@H]2NC2CCNCC2)cc1 measurement_name=pIC50 value_measured="< 4.00"

###

- Procedure summary: Inhibition of Cav1.2 (unknown origin)
- Set-up: species or system Homo sapiens
Measurement name: IC50

substance_smiles=c1ccc([C@@H]2C[C@H]2NC2CCNCC2)cc1 value_measured="> 100 µM"

###

- Procedure summary: Tmax in mouse at 5.5 mg/kg, ip by HPLC/MS/MS analysis
- Assay type: ADME, organism-based
- Run parameters: in vivo
Measurement name: Tmax (min)

substance_smiles=c1ccc([C@@H]2C[C@H]2NC2CCNCC2)cc1 value_measured=18

###

Below is a list of entries, each paired with its recorded IC50 value.
- Subject of test: cGMP-inhibited 3',5'-cyclic phosphodiesterase 3A (Homo sapiens)
- Sequence (Q14432 whole entry): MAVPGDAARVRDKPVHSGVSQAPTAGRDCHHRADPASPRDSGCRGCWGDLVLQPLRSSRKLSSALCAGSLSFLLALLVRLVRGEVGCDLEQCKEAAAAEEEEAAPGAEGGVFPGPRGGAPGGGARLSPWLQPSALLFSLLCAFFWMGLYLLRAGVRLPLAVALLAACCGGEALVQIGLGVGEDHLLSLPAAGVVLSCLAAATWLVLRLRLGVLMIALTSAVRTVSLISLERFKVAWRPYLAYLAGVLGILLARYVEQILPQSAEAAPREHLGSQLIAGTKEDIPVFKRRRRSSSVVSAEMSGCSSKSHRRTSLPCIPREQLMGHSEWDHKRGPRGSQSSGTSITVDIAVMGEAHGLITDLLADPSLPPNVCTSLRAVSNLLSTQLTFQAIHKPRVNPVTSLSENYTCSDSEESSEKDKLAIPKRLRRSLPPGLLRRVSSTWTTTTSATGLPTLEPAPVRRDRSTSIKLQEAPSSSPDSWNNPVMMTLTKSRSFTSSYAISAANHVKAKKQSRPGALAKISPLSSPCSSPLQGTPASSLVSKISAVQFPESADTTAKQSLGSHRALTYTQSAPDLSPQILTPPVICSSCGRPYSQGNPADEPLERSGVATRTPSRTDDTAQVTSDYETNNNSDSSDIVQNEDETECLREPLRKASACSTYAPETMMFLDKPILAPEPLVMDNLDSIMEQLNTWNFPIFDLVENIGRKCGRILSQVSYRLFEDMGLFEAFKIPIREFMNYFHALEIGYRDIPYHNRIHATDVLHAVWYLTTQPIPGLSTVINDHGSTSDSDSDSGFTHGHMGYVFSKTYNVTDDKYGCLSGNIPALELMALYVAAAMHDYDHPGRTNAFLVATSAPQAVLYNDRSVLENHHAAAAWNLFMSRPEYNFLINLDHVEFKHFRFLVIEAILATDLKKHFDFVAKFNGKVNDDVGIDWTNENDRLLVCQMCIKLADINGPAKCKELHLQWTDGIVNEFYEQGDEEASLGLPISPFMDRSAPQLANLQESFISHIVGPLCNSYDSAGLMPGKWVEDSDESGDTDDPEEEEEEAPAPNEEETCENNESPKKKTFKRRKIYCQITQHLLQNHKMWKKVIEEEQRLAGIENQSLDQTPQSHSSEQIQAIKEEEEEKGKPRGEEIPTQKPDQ
Measurement name: IC50

molecule=c1ccc([C@@H]2C[C@H]2NC2CCNCC2)cc1 subject_of_test="cGMP-inhibited 3',5'-cyclic phosphodiesterase 3A (Homo sapiens)" measurement_name=IC50 value_measured="> 100 µM"
molecule="O=C(O)c1ccc(CN2CCC(CN[C@@H]3C[C@H]3c3ccccc3)CC2)cc1 [GSK2879552]" subject_of_test="cGMP-inhibited 3',5'-cyclic phosphodiesterase 3A (Homo sapiens)" measurement_name=IC50 value_measured="> 100 µM"

###

- Subject of test: Aurora kinase B (Homo sapiens, UniProt Q96GD4)
- Sequence (Q96GD4 whole entry): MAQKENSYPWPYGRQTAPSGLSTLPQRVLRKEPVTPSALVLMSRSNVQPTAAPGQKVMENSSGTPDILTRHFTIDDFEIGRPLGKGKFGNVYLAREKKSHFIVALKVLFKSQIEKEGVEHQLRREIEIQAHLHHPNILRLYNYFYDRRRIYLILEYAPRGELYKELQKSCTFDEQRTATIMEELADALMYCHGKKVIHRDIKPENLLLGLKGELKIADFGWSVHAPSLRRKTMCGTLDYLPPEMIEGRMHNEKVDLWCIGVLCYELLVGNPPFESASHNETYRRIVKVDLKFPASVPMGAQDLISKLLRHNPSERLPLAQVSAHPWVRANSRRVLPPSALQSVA
Measurement name: IC50

substance_smiles=c1ccc([C@@H]2C[C@H]2NC2CCNCC2)cc1 value_measured="> 32 µM"
substance_smiles=O=C(O)c1ccc(CN2CCC(CN[C@@H]3C[C@H]3c3ccccc3)CC2)cc1 value_measured="> 32 µM"

###

- Subject of test: 3',5'-cyclic-AMP phosphodiesterase 4B (Homo sapiens, UniProt Q07343)
- Sequence (Q07343 whole entry): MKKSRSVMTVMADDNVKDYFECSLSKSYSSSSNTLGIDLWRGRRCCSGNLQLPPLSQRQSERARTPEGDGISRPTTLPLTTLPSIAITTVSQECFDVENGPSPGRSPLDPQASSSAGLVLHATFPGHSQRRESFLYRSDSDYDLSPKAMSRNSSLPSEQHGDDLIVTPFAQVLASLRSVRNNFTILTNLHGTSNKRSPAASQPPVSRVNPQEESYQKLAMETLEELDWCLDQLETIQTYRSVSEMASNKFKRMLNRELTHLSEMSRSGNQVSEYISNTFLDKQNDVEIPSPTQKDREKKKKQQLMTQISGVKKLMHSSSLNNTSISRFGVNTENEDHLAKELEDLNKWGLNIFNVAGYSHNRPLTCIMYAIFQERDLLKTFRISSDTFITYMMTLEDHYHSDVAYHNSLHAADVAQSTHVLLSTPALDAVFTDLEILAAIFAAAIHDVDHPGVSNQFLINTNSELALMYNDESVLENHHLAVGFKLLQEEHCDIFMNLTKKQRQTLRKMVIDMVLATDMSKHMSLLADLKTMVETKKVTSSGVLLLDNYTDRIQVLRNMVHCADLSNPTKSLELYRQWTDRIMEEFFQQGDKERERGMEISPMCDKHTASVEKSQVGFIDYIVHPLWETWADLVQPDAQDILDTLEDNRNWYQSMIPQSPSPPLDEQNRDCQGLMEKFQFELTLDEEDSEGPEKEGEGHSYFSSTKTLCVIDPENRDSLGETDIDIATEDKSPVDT
Measurement name: IC50

substance_smiles=c1ccc([C@@H]2C[C@H]2NC2CCNCC2)cc1 value_measured="> 100 µM"

###

Below is a list of entries, each paired with its recorded pEC50 value.
- Subject of test: UniProt:P28223
- Sequence (P28223 whole entry): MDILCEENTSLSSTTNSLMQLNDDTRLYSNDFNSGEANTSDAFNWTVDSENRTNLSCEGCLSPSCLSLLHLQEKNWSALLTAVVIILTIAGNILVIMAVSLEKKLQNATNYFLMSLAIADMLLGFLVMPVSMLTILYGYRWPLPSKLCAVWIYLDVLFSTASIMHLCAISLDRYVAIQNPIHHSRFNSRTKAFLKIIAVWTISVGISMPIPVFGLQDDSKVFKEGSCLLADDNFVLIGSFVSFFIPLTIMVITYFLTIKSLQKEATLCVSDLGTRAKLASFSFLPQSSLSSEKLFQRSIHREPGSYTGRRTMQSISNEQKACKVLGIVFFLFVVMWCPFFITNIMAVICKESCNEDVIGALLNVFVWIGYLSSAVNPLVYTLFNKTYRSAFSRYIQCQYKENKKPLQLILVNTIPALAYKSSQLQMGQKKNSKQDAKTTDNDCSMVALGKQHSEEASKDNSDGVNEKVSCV
- Procedure summary: Antagonist activity at 5-HT2A receptor (unknown origin)
- Format: functional
pEC50: −log10 of the molar value.
Measurement name: pEC50

substance_smiles=O=C(O)c1ccc(CN2CCC(CN[C@@H]3C[C@H]3c3ccccc3)CC2)cc1 value_measured=4.70
substance_smiles=c1ccc([C@@H]2C[C@H]2NC2CCNCC2)cc1 value_measured=4.80

###

- Subject of test: Alpha-1B adrenergic receptor (Homo sapiens, UniProt P35368)
- Sequence (P35368 whole entry): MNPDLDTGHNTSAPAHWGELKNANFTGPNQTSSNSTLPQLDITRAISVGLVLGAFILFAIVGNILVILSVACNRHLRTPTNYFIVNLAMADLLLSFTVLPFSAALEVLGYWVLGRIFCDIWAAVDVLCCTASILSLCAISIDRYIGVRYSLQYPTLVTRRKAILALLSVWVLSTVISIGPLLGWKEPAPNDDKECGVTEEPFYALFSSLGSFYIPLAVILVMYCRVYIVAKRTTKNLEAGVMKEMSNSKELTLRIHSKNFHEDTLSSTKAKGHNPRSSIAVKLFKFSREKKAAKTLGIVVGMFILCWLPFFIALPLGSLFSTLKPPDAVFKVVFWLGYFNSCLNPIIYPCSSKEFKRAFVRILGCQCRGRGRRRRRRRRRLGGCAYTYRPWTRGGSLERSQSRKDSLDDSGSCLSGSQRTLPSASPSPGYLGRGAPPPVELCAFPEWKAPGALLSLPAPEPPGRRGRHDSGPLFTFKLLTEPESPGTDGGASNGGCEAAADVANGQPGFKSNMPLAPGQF
- Procedure summary: Agonist activity at Adrenergic a1B receptor (unknown origin)
pEC50: −log10 of the molar value.
Below is a list of entries, each paired with its recorded pEC50 value.
Measurement name: pEC50

substance_smiles=c1ccc([C@@H]2C[C@H]2NC2CCNCC2)cc1 value_measured="< 4.60"
substance_smiles=O=C(O)c1ccc(CN2CCC(CN[C@@H]3C[C@H]3c3ccccc3)CC2)cc1 value_measured="< 4.40"

// provenance: ChEMBL document CHEMBL5705903
